Origin of the recorded values: patent US20240016781A1

Assay: PK of voruciclib, 2 weeks of daily dosing followed by 1 week without dosing in a 21-day cycle (Table 3)
Format: in vivo, human
Conditions: human, plasma, oral, 850 mg, Day 1, 2 weeks daily dosing/1 week off, mean
Excerpt: Voruciclib half life is designated as t½ in the tables (expressed in hours). Voruciclib volume of distribution is designated as Vz/F (expressed in liters).

# COMPOUND, half-life [h]
rows = [
    ("CN1CC[C@@H](c2c(O)cc(O)c3c(=O)cc(-c4ccc(C(F)(F)F)cc4Cl)oc23)[C@@H]1CO [Voruciclib]", 50),
]

====

Assay: PK of voruciclib, 2 weeks of daily dosing followed by 1 week without dosing in a 21-day cycle (Table 3)
Format: in vivo, human
Conditions: human, plasma, oral, 600 mg, Day 13, 2 weeks daily dosing/1 week off, mean
ENDPOINT_NAME: Cmax (ng/mL)

# MOLECULE, UNITS_OF_MEASURE, DATA_VALUE
rows = [
    ("CN1CC[C@@H](c2c(O)cc(O)c3c(=O)cc(-c4ccc(C(F)(F)F)cc4Cl)oc23)[C@@H]1CO [Voruciclib]", "ng/mL", 2940),
]

====

Experiment: PK of voruciclib, 2 weeks of daily dosing followed by 1 week without dosing in a 21-day cycle (Table 3)
Assay type: in vivo, human
Conditions: human, plasma, oral, 75 mg, Day 13, 2 weeks daily dosing/1 week off, median
ENDPOINT_NAME: Tmax (h)

# SMILES_ENTRY, DATA_VALUE
records = [
    ("CN1CC[C@@H](c2c(O)cc(O)c3c(=O)cc(-c4ccc(C(F)(F)F)cc4Cl)oc23)[C@@H]1CO", 4),
]

====

Assay: PK of voruciclib, daily dosing continuously (Table 4)
Assay type: in vivo
Details: human, plasma, oral, 500 mg, Day 1, daily dosing continuously, mean; read-out: t½ (converted)
ENDPOINT_NAME: half-life (h)

# COMPOUND, ENDPOINT_NAME, DATA_VALUE
records = [
    ("CN1CC[C@@H](c2c(O)cc(O)c3c(=O)cc(-c4ccc(C(F)(F)F)cc4Cl)oc23)[C@@H]1CO [Voruciclib]", "half-life", 24.8),
]

====

Assay: PK of voruciclib, 2 weeks of daily dosing followed by 1 week without dosing in a 21-day cycle (Table 3)
Assay type: in vivo, human
Conditions: human, plasma, oral, 850 mg, Day 13, 2 weeks daily dosing/1 week off, mean; read-out: AUC0-t

# MOLECULE, AUC(0-t) [ng·h/mL]
rows = [
    ("CN1CC[C@@H](c2c(O)cc(O)c3c(=O)cc(-c4ccc(C(F)(F)F)cc4Cl)oc23)[C@@H]1CO [Voruciclib]", 83900),
]

====

Test: PK of voruciclib, 2 weeks of daily dosing followed by 1 week without dosing in a 21-day cycle (Table 3)
Format: in vivo, human
Settings: human, plasma, oral, 75 mg, Day 13, 2 weeks daily dosing/1 week off, mean

# MOLECULE, AUC(0-inf), ng·h/mL
records = [
    ("CN1CC[C@@H](c2c(O)cc(O)c3c(=O)cc(-c4ccc(C(F)(F)F)cc4Cl)oc23)[C@@H]1CO [Voruciclib]", 8660),
]

====

Test: PK of voruciclib, daily dosing continuously (Table 4)
Assay type: in vivo
Conditions: human, plasma, oral, 150 mg, Day 1, daily dosing continuously, mean; read-out: Vz/F
From the text: Voruciclib half life is designated as t½ in the tables (expressed in hours). Voruciclib volume of distribution is designated as Vz/F (expressed in liters).

# SMILES_ENTRY, UNITS_OF_MEASURE, Vd/F
measured = [
    ("CN1CC[C@@H](c2c(O)cc(O)c3c(=O)cc(-c4ccc(C(F)(F)F)cc4Cl)oc23)[C@@H]1CO", "L", 579),
]
